system: CYP3A; assay: CYP Induction (CYP3A activity in cryopreserved hepatocytes, P450-Glo CYP3A4 assay); type: in vitro ADME; conditions: % of positive control (inducibility by 10 μmol/L rifampicin = 100%); hepatocytes treated 3 days
For each of the compounds below, state its Inducibility (%).
Numbers only, in %.

| compound | target | value reported |
| --- | --- | --- |
| CC1(C)C[C@H](c2ccccc2)Nc2c(C(=O)N3CC4CC4(c4cc(Cl)cc(C(F)(F)F)c4)C3)cnn21 (single isomer, unassigned) | CYP3A | 9.0 |
| CC1(C)C[C@H](c2ccccc2)Nc2c(C(=O)N3CC4CC4(c4ccc(C(F)(F)F)cc4)C3)cnn21 (single isomer, unassigned) | CYP3A | 2.3 |
| CC1(C)C[C@H](c2ccccc2)Nc2c(C(=O)N3CC4CC4(c4ccc(Cl)c(C(F)(F)F)c4)C3)cnn21 (single isomer, unassigned) | CYP3A | 16.7 |
| CC1(C)C[C@H](c2ccccc2)Nc2c(C(=O)N3CC4CC4(c4ccc(C(F)(F)F)c(Cl)c4)C3)cnn21 (single isomer, unassigned) | CYP3A | 1.2 |
| CC1(C)C[C@H](c2ccccc2)Nc2c(C(=O)N3CC4CC4(c4cc(Cl)cc(Cl)c4)C3)cnn21 (single isomer, unassigned) | CYP3A | 10.7 |

Lab note: next compound to report on.
Ask: Bench note: what Inducibility (%) did CC1(C)C[C@H](c2ccccc2)Nc2c(C(=O)N3C[C@@H]4C[C@]4(c4ccc(Cl)c(Cl)c4)C3)cnn21 show?
Reply: 4.9

* * *

Target: human CaSR (Homo sapiens, UniProt P41180)
Construct: expressed in transfected cells; host or cells: CHO cells
Sequence (P41180 20-1078): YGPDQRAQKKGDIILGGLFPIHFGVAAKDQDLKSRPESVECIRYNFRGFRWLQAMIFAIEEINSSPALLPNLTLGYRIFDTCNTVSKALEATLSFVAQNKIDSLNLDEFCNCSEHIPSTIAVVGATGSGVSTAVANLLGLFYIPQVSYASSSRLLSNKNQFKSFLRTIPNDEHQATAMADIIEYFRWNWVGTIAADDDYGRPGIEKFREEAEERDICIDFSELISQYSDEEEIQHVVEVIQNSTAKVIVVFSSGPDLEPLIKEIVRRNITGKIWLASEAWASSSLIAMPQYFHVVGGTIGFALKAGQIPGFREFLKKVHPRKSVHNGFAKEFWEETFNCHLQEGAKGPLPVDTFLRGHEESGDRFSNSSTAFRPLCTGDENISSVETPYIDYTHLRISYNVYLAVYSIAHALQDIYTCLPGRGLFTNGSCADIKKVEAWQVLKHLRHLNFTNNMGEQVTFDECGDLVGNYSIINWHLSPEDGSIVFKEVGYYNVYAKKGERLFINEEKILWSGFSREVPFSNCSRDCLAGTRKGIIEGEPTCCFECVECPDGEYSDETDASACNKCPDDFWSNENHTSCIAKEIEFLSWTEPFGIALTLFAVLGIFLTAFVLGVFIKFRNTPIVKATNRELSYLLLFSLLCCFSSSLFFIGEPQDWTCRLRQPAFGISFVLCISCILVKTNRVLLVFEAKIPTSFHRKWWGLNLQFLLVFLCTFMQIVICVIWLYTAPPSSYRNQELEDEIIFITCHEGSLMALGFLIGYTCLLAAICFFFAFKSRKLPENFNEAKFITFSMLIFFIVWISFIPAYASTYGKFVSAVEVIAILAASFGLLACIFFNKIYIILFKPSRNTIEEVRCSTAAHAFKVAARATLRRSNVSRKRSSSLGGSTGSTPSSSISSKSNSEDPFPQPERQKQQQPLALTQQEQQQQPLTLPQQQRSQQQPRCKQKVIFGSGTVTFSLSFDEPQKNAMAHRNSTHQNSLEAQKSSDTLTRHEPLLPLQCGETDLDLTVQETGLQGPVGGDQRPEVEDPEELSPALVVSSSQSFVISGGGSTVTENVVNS
Assay: Human CaSR Antagonist Activity (CHO cells, NFAT-Luciferase reporter)
Type: cell-based
Details: 3.3 μm test compound; CaCl2 final 1.3 mM; 100% = reference carboxamide at 10 μM
result type: Inhibition rate (%) at 3.3 μm
Give bare numbers, in %.

Solved cases below.
| compound | result type | units label | value reported |
| --- | --- | --- | --- |
| CC1(C)C[C@H](c2ccccc2)Nc2c(C(=O)N3CC4CC4(c4cccc(Cl)c4)C3)cnn21 (some centres unmarked) [Example 17] | Inhibition rate (%) at 3.3 μm | % | 95 |
| Cc1cccc(C23CC2CN(C(=O)c2cnn4c2N[C@@H](c2ccccc2)CC4(C)C)C3)c1 (some centres unmarked) [Example 23] | Inhibition rate (%) at 3.3 μm | % | 92 |
| CC1(C)C[C@H](c2ccccc2)Nc2c(C(=O)N3CC4CC4(c4ccc(C(F)(F)F)cc4F)C3)cnn21 (some centres unmarked) [Example 28] | Inhibition rate (%) at 3.3 μm | % | 101 |

Record Inhibition rate (%) at 3.3 μm for all entries; do not skip any.
1. CC1(C)C[C@H](c2ccccc2)Nc2c(C(=O)N3CC4CC4(c4ccc(C(F)(F)F)cc4F)C3)cnn21 (some centres unmarked) [Example 29]
2. COc1cccc(C23CC2CN(C(=O)c2cnn4c2N[C@@H](c2ccccc2)CC4(C)C)C3)c1 (some centres unmarked) [Example 20]

Reply:
1. 92
2. 93
